pIC50: −log10 of the molar value.
Collected literature values of pIC50 measured for CD73 (Homo sapiens (Human), UniProt P21589).

The following molecules have reported results that may help.
COC[C@](C)(OC[C@H]1O[C@@H](c2ccc3c(NC4CCCC4)nc(Cl)nn23)[C@H](O)[C@@H]1O)P(=O)(O)O ... ≥ 9.30
O=P(O)(O)CS(=O)(=O)C[C@H]1O[C@@H](n2nnc3c(N[C@H]4CCc5ccccc54)nc(Cl)nc32)[C@H](O)[C@@H]1O ... ≥ 6.30
O=C(NC12CCC(CC1)C2)O[C@@H]1CCN(c2cn[nH]c(=O)c2Cl)C1 ... 5.00 to 9.00
O=C(NC1C2CCC1CC(O)C2)O[C@@H]1CCN(c2cn[nH]c(=O)c2Cl)C1 (stereo partly shown) ... 5.00 to 9.00
O=C(NC1(c2ccc(F)cc2)CC1)O[C@@H]1CCN(c2cn[nH]c(=O)c2Cl)C1 ... 5.00 to 9.00
CC(COCC1CC1)(OC[C@H]1O[C@@H](n2ncc3c(NC4CCCC4)nc(Cl)nc32)[C@H](O)[C@@H]1O)P(=O)(O)O (stereo partly shown) ... ≥ 7.00

Entry CC(COCCO)(OC[C@H]1O[C@@H](n2ncc3c(NC4CCCC4)nc(Cl)nc32)[C@H](O)[C@@H]1O)P(=O)(O)O (stereo partly shown) ; assay system CD73 (Homo sapiens (Human), UniProt P21589); pIC50 recorded at ≥ 7.00

// molecule CN(C[C@H]1O[C@@H](n2cnc3c(NC4CCCC4)nc(Cl)nc32)[C@H](O)[C@@H]1O)C(=O)CP(=O)(OCOC(=O)C(C)(C)C)OCOC(=O)C(C)(C)C , assay CD73 (Homo sapiens (Human), UniProt P21589), pIC50 value: < 6.00

The molecule NC(=O)OC[C@@](CO)(OC[C@H]1O[C@@H](n2ncc3c(NC4CCCC4)nc(Cl)nc32)[C@H](O)[C@@H]1O)P(=O)(O)O (racemic) on CD73 (Homo sapiens (Human), UniProt P21589): pIC50 was ≥ 7.00

Record for O=C(N[C@H]1CC[C@H](NS(=O)(=O)CC(F)(F)F)CC1)O[C@@H]1CCN(c2cn[nH]c(=O)c2Cl)C1 under target or system CD73 (Homo sapiens (Human), UniProt P21589): pIC50 reported as 5.00 to 9.00

Case CN(c1nc(Cl)nc2c1nnn2[C@@H]1O[C@H](COC(=O)CP(=O)(O)O)[C@@H](O)[C@H]1O)[C@H]1CCc2ccccc21 , CD73 (Homo sapiens (Human), UniProt P21589), pIC50 recorded as < 6.00

Note to self: pIC50 of CC(=O)NCC(=O)N1CCC(NC(=O)O[C@@H]2CCN(c3cn[nH]c(=O)c3Cl)C2)CC1 with CD73 (Homo sapiens (Human), UniProt P21589) was 5.00 to 9.00

// returns pIC50 for CC(C)CN(C[C@H]1O[C@@H](n2ncc3c(NCc4ccccc4Cl)nc(Cl)nc32)[C@H](O)[C@@H]1O)C(=O)CP(=O)(O)O with CD73 (Homo sapiens (Human), UniProt P21589); value = < 6.00

# value of pIC50, CD73 (Homo sapiens (Human), UniProt P21589), item CC(C)OC(=O)OCOP(=O)(O)CC(=O)N(C)C[C@H]1O[C@@H](n2cnc3c(N[C@H]4CCOC4)nc(Cl)nc32)[C@H](O)[C@@H]1O = < 6.00

Lab entry: CD73 (Homo sapiens (Human), UniProt P21589) assay, molecule COCCN(c1nc(Cl)nc2c1cnn2[C@@H]1O[C@H](CS(=O)(=O)CP(=O)(O)O)[C@@H](O)[C@H]1O)C1CCCC1 , pIC50 = ≥ 6.30

The molecule C[C@@](CO)(OC[C@H]1O[C@@H](n2ncc3c(NC4CCCC4)nc(C#CCO)nc32)[C@H](O)[C@@H]1O)P(=O)(O)O (racemic) on CD73 (Homo sapiens (Human), UniProt P21589): pIC50 was ≥ 7.00

Fill in: CD73 (Homo sapiens (Human), UniProt P21589) pIC50 for CN(C[C@H]1O[C@@H](n2cnc3c(N[C@H]4CCOC4)nc(Cl)nc32)[C@H](O)[C@@H]1O)C(=O)CP(=O)(O)O = 6.00 to 7.00

Kindly note: CD73 (Homo sapiens (Human), UniProt P21589), CN1CCC(NC(=O)O[C@@H]2CCN(c3cn[nH]c(=O)c3Cl)C2)CC1=O (stereo partly shown) , pIC50 value reported: 5.00 to 9.00

Form field, pIC50 with CD73 (Homo sapiens (Human), UniProt P21589), item CC(C)(O)[C@H]1CC[C@H](NC(=O)O[C@@H]2CCN(c3cn[nH]c(=O)c3Cl)C2)CC1 : 5.00 to 9.00
